Would you kindly list pIC50 for each of these binders?
target.desc: HLA-DR molecule DRB5*0101 (human)
protocol.summary: competition vs 125I probe, purified HLA
Note on pIC50: it is the negative log10 of concentration, concentration in mol/L.

q: I'd like to know its pIC50. The binder in question is GLRSLTTLTRALGAQ [EPO 101 analog GLRSLTTLTRALGAQ]
a: 7.89

q: Try GLRSLTTLPRALGAQ [EPO 101 analog GLRSLTTLPRALGAQ] next.
a: 8.55

q: Try GLRSLGTLLRALGAQ [EPO 101 analog GLRSLGTLLRALGAQ] next.
a: 7.89

q: Try GLRSLTTLNRALGAQ [EPO 101 analog GLRSLTTLNRALGAQ] next.
a: 9.05
